assay.target: Platelet-derived growth factor receptor beta (Homo sapiens)
measurement.context: at 1 µM
readout.kind: residual activity (%)
A number alone suffices; assume %.

Could you tell me which residual activity is on file for Cn1nc2c3c(cccc31)C(=O)c1ccccc1-2 ?
91

Can you share its residual activity? I mean this molecule: CO[C@@H]1[C@H](N(C)C(=O)c2ccccc2)C[C@H]2O[C@]1(C)n1c3ccccc3c3c4c(c5c6ccccc6n2c5c31)C(=O)NC4
46

Field request: residual activity | item: Cc1nc2cc3nc(-c4cccs4)cnc3cc2n1C
97

# residual activity lookup, item Nc1ccc2ncnc(NCCc3ccc(Oc4ccccc4)cc3)c2c1
97

Name the reported residual activity value associated with the molecule COc1cc2ncnc(Nc3ccc(O)c(Br)c3)c2cc1OC
105

Sample O=c1c2ccccc2[nH]c(=S)n1CCN1CCC(=C(c2ccc(F)cc2)c2ccc(F)cc2)CC1 — what was its residual activity?
106

Please look up its residual activity: COc1cc2ncc(-c3ccccc3)nc2cc1OC
97

For the molecule CC(=O)O/N=C1\C(=C2\C(=O)Nc3cc(Br)ccc32)Nc2ccccc21 , what residual activity is on record?
86

What value of residual activity has been recorded for this entry: O=[N+]([O-])c1ccc(-c2nc(-c3ccc(F)cc3)c(-c3ccncc3)[nH]2)cc1
103

Consider the molecule NC(=O)c1ccc2[nH]c(-c3ccc(Oc4ccc(Cl)cc4)cc3)nc2c1 and give its measured residual activity.
107

# query: residual activity of entry CC(C)n1cnc2c(NCc3ccccc3)nc(NCCCO)nc21
98

What value of residual activity has been reported for the following molecule? Oc1ccc(Nc2nc(-c3ccc(Cl)cc3)cs2)cc1
117

Requested field: residual activity. Item: Cn1cc(/C=C2\C(=O)Nc3ccc(S(N)(=O)=O)cc32)c2ccccc21
98

Quick check: residual activity of CC[n+]1c(/C=C/N(C)c2ccccc2)n(-c2ccccc2)c2ccc(-c3nc4ccccc4s3)cc21 ?
103

Item under review: O=C1Nc2cc(Br)ccc2/C1=C1/Nc2ccccc2/C1=N\O . Reported residual activity?
36

Given the entry O=C1NC(=O)c2cc(Nc3ccc(F)cc3)c(Nc3ccc(F)cc3)cc21 , report its measured residual activity.
109

residual activity lookup needed for Cc1ccc(S(=O)(=O)/C=C/C#N)cc1 , thanks.
104

// residual activity lookup, key: COc1ccc(CNc2nc(N(CCO)CCO)nc3c2ncn3C(C)C)cc1
93

Which measured residual activity value corresponds to Oc1n[nH]c2nnc(-c3c(-c4ccccc4)nn4ccccc34)cc12 ?
103

Which value of residual activity has been reported for c1ccc(-c2n[nH]cc2-c2ccnc3ccccc23)nc1 in the records?
96

So what does the record say about residual activity for Cn1cnc2cc3c(Nc4cccc(Br)c4)ncnc3cc21 ?
103

So what's the measured residual activity for this one? CN(C)CCCn1cc(C2=C(c3c[nH]c4ccccc34)C(=O)NC2=O)c2ccccc21
106

I am curious: what residual activity value has been reported for O=C1Nc2ccc(Br)cc2/C1=C\c1cc2c([nH]1)CCCC2 ?
74

What value of residual activity has been reported for the following molecule? COc1cccc(-c2cc(=O)c3ccccc3o2)c1N
114

So what does the record say about residual activity for CNc1cc2c(Nc3cccc(Br)c3)ncnc2cn1 ?
109

// residual activity lookup, key: COc1ccc(S(=O)(=O)N(CCO)c2ccccc2CN(C)C/C=C/c2ccc(Cl)cc2)cc1
109

Recorded residual activity for Cc1ccc(NC2=CC(=O)c3sc(C)nc3C2=O)cc1 , please?
93

# get_value(readout='residual activity', item= CO[C@H]1[C@@H](OC)C[C@H](C)[C@@H](OC)C2=CC(=O)C=C(NC(=O)/C(C)=C/C=C/[C@H](OC)[C@@H](OC(N)=O)/C(C)=C/[C@@H]1C)C2=O )
108

Recorded residual activity for Oc1ccc(-c2nc(-c3ccc(F)cc3)c(-c3ccncc3)[nH]2)cc1 , please?
111

Which residual activity is listed for O=C1Nc2ccccc2/C1=C1/Nc2ccccc2/C1=N\OCCC(O)CO (configuration not stated) ?
79

What does the data say about its residual activity? Entry: Nc1n[nH]c2nnc(-c3c(-c4ccccc4)nn4ccccc34)cc12
97

// query residual activity value for entry O=C1NC(=O)/C(=C/c2ccc3c(c2)OC(F)(F)O3)S1
108

What measured residual activity goes with CO[C@H]1C[C@@H]2CC[C@@H](C)[C@@](O)(O2)C(=O)C(=O)N2CCCC[C@H]2C(=O)O[C@H]([C@H](C)C[C@@H]2CC[C@@H](O)[C@H](OC)C2)CC(=O)[C@H](C)/C=C(\C)[C@@H](O)[C@@H](OC)C(=O)[C@H](C)C[C@H](C)/C=C/C=C/C=C/1C ?
116

Can you look up the measured residual activity of O=C1NC(=O)c2c1c1c3ccccc3[nH]c1c1[nH]c3cc(Br)ccc3c21 for me?
89

Report residual activity for Cc1cc(Nc2nc(-c3ccccc3)nc3ccccc23)n[nH]1 please.
79

Any idea what its residual activity is? The molecule is CC#CC(=O)Nc1cc2c(Nc3ccc(F)c(Cl)c3)ncnc2cn1
105

Which residual activity is listed for N#Cc1cnc2cnc(NCc3cccnc3)cc2c1Nc1ccc(F)c(Cl)c1 ?
119
